- Tested on: Enterococcus faecalis
- testDescription: Bactericidal activity against Vancomycin-resistant Enterococcus faecalis ATCC 51299 assessed as inhibition of bacterial growth measured after 20 hrs by two-fold microdilution assay
- Format: functional
Measured MBC accompanies every entry in the list below.
Report the figure in µg/mL without appending any unit label.

Example cases with answers are listed next.
compoundStructure | scaleUnit | MBC
Cc1ccc2c[n+](C)c3ccc(-c4ccc5ccn(Cc6ccc(C(F)(F)F)cc6)c5c4)cc3c2c1.[Cl-] | µg/mL | 32
CC(=O)NC[C@H]1CN(c2ccc(N3CCOCC3)c(F)c2)C(=O)O1 | µg/mL | 64

Shifting focus to the compound that follows.
Q. Bench note: what MBC did Cc1ccc2c[n+](C)c3ccc(-c4ccc5ccn(Cc6ccc(OC(F)(F)F)cc6)c5c4)cc3c2c1.[Cl-] show?
A. 16

###

- Test system: Staphylococcus aureus
- testDescription: Antibacterial activity against clinical isolate Staphylococcus aureus C1 assessed as inhibition of bacterial growth measured after 20 hrs by two-fold microdilution assay
- Assay type: functional
assayMetric: MIC (µg/mL)
Write the number in µg/mL without appending the unit.

compoundStructure | targetOrSystem | MIC, µg/mL
CCCCCn1ccc2ccc(-c3ccc4c(c3)c3cc(C)ccc3c[n+]4C)cc21.[Cl-] | Staphylococcus aureus | 4

Q. Recorded MIC of Cc1ccc2c[n+](C)c3ccc(-c4ccc5ccn(Cc6ccc(C(F)(F)F)cc6)c5c4)cc3c2c1.[Cl-] , please.
A. 2

Q. Same thing, different molecule: Cc1cccc2c[n+](C)c3ccc(-c4ccc5ccn(C)c5c4)cc3c12.[Cl-]
A. 8

Q. What do you have for Cc1cccc2c[n+](C)c3ccc(-c4ccc5ccn(CC(C)C)c5c4)cc3c12.[Cl-] ?
A. 4

###

Below, each entry is listed with its recorded MIC.
- System: Bacillus subtilis
- testDescription: Antibacterial activity against penicillin-susceptible Bacillus subtilis ATCC 9372 assessed as inhibition of bacterial growth measured after 20 hrs by two-fold microdilution assay
- Type: functional

compoundStructure | targetOrSystem | assayMetric | result
COc1ccc2cc3[n+](cc2c1OC)CCc1cc2c(cc1-3)OCO2 | Bacillus subtilis | MIC | > 64 µg/mL

Q. Quick one: MIC for Cc1cccc2c1c[n+](C)c1ccc(-c3nc4ccccc4s3)cc21.[Cl-] ?
A. > 64 µg/mL

Q. Further, for COc1ccc2c(c1)c[n+](C)c1ccc(-c3nc4ccccc4s3)cc21.[Cl-] ?
A. > 64 µg/mL

###

- Tested on: Bacillus subtilis
- testDescription: Bactericidal activity against penicillin-susceptible Bacillus subtilis ATCC 9372 assessed as inhibition of bacterial growth measured after 20 hrs by two-fold microdilution assay
- Type: functional
Listing: MBC of selected compounds

compoundStructure | MBC
Cc1ccc2c[n+](C)c3ccc(-c4ccc5ccn(Cc6ccc(C(F)(F)F)cc6)c5c4)cc3c2c1.[Cl-] | > 8 µg/mL

Q. Any idea what its MBC is? The compound is C[n+]1cc2c3c(ccc2c2ccc4cc5c(cc4c21)OCO5)OCO3
A. > 128 µg/mL

Q. Also, Cc1cccc2c[n+](C)c3ccc(-c4nc5ccccc5s4)cc3c12.[Cl-] please.
A. > 64 µg/mL
